Biological target: T1, TerR35-138 (Aspergillus terreus SBUG844, UniProt Q0D1P5 35-138)
T1 sequence: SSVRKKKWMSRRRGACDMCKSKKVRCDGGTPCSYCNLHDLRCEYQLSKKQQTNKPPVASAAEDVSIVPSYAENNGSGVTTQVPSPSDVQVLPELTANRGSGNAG
Assay: SPR; molar ratio 1.93; SPR (Biacore 2000, SA-coated CM3 chip): 10 mM HEPES pH 7.4, 150 mM NaCl, 0.005% P20, 5 mM beta-mercaptoethanol, 1 uM ZnCl2, 25 C; protein 12.5-6400 nM; 1:1 model with mass transport
Details: protein: recombinant; (pET-29a; theoretical mass 11.35 kDa); label: biotin on one strand; 18 bp duplex
PROPERTY_NAME: Kd (µM)
The answer is to be given in µM; state only the numeric part.

In plain terms, BS2m1 (5'-CGG to CAA) (dsDNA) DNA 1: TTATCAAACTTTCGGATT DNA 2: AATCCGAAAGTTTGATAA has a documented Kd of 5.78
